# System: MS2 coat protein
# Assay details: apparent Kd, MS2 coat protein; higher = weaker binding; RNA-MaP array; tryptophan 2.4 mM where present
# Run parameters: designed as: ON switch for tryptophan; no ligand
Task for the reader: assign each of the following sequences its reported apparent Kd.
Give bare numbers, in nM.

// batch mode: one apparent Kd value per listed entry
1. AAUAAACAUGAGGAUCACCCAUGUUGUUGACGAGGACCGGUACGGCCGCCACUCGACAUGAGGAUCACCCAUGUUGUCACAUGAG
2. UCGGACAUGAGGAUCACCCAUGUAAAUCCUCGAGGACCGGUACGGCCGCCACUCGAACGAGUGGCACGCGAGUGCGCACUCGCGU
3. AUGGAGACCUCGGCCGCCACUCUCCAUGAGGAUCUCCCAUGUAACAUGAGGAUCACCCAUGUACUGAGGACCGGGAGGUCCUUGA
4. ACCGCGGUAUCGGCCGCCACUUGUGGGUUAAAUCUGGUACAUGAGGAUCACCCAUGUGUCUCCUCGAGGACCGGGAUAGCGUGAC

Reply:
180
30.9
9.9
158

* * *

# Test system: MS2 coat protein
# Assay details: apparent Kd, MS2 coat protein; higher = weaker binding; RNA-MaP array; theophylline 2 mM where present
# Run parameters: ligand present: theophylline; designed as: OFF switch for theophylline
Would you mind telling me the reported apparent Kd of each entry?
Give bare numbers, in nM.

# example entries with known answers
Sequence input: UCGCUCGCAGAAAUGCGAGCGAGUUGCGAUACCAGCCCGGAAACGGGCCCUUGGCAGCGCACAUGAGGAUCACCCAUGUCAUGUU
apparent Kd (nM): 23.8

Sequence input: UUUUUUAUCAUGGCGUAUCGGAAAACCGAUACCAGUACAGAAAUGUACCCUUGGCAGCGGCGUUUUACAUGAGGAUCACCCAUGU
apparent Kd (nM): 69.2

Sequence input: UGGUACAUGAGGAUCACCCAUGUUCCAGAUACCAGACUCCCGGUGGUCCCUUGGCAGCUGGUGGUACAUGAGGAUCACCCAUGUG
apparent Kd (nM): 49.9

Query: Give apparent Kd for the following sequence: AUGGUAGGACAGCACAUAUAAGCUUGUGAUACCAGCUAGAAAACUAGCCCUUGGCAGCACAUUACAUGAGGAUCACCCAUGUCCC
Reply: 75.7

* * *

For each record, write down the corresponding apparent Kd.
# System: MS2 coat protein
# Assay details: apparent Kd, MS2 coat protein; higher = weaker binding; RNA-MaP array; tryptophan 2.4 mM where present
# Run parameters: ligand present: tryptophan; designed as: OFF switch for tryptophan
Give bare numbers, in nM.

Record excerpt, results attached:
Sequence input: UUCUUUAAGUCGGCCGCCACUGAAACAUGAGGAUCACCCAUGUAAAUUUGGGAGUAGGUAUAUUACAGGACCGGGACUAUAGUAA
apparent Kd / nM: 54.8
--
Sequence input: UAUUAUCAGUCGGCCGCCACUGACACAUGAGGAUCACCCAUGUAAUUUGGGUUAUAUAUAAAUUACAGGACCGGGACAAAUGCUA
apparent Kd / nM: 280

Switching to the query record.
Query: Specify reported apparent Kd for the sequence shown: UGAUACCAGUCGGCCGCCACUACAUGAGGAUCACCCAUGUAUGGGUCAAUGCUAGAUACUAGCAGUAGGACCGGGACUGGUAUCU
Reply: 36.1

* * *

# Tested on: MS2 coat protein
# Assay details: apparent Kd, MS2 coat protein; higher = weaker binding; RNA-MaP array; theophylline 2 mM where present
# Run parameters: ligand present: theophylline; designed as: ON switch for theophylline
Measured metric: apparent Kd (nM)
Numbers only, in nM.

Quick batch: apparent Kd for everything below.
1. GCUGUAAGUGCAGAUACCAGCGUGUUAUAUUUCUAAUGACAUGAGGAUCACCCAUGUAAAUGCCCUUGGCAGCUGCACUUACAGC
2. UUUGAUAGAACAGAUACCAGCGUGUUAUAAAACAUGAGGAUCACCCAUGUAGUGAUCAAGCGCCCUUGGCAGCUGGUUUGUUAGG
3. AACAGGGCUCGCACGAAGCCCUAAGGUGAUACCAGCACAUGUAAGUGCCCUUGGCAGCACGGUACAUGAGGAUCACCCAUGUAGA
4. CGUACAUGAGGAUCACCCAUGUAGAGUGAUACCAGUCUACCUAGUGACCCUUGGCAGCACAUCGAUGGCAUCGGUGAUGCCGUUU
5. UUCUACAUGAGGAUCACCCAUGUGGGUGAUACCAGCACUUUUUGGUGCCCUUGGCAGCACAUGAGAAUACCGUACGAUCGGUGAU
6. ACAAGUCCUCAUGAUACCAGCGAUGAGACAUAGUCUCAACAUGAGGAUCACCCAUGUAUUCGCCCUUGGCAGCAUACGGUUUUUG
7. AACCGAGGCUAUCCUCUAAGAAUAUGUGAUACCAGAAUAAUUUUAUUCCCUUGGCAGCAUGACAUGAGGAUCACCCAUGUGUCUU

Reply:
1. 16.9
2. 182
3. 255
4. 83.3
5. 615
6. 28.5
7. 134

* * *

I'd be grateful if you could share measured apparent Kd for these entries.
# Test system: MS2 coat protein
# Assay details: apparent Kd, MS2 coat protein; higher = weaker binding; RNA-MaP array; FMN 200 µM where present
# Run parameters: ligand present: flavin mononucleotide; designed as: ON switch for flavin mononucleotide
Give bare numbers, in nM.

Sequence input: GCAACGCCUGACAUGAGGAUCACCCAUGUUAGAUUGUUAUGUCAGGAUAUAGUCUAGAAACUAGACUAGAAGGGAUGUGUUGCU
Result value: 131
//
Sequence input: GCCCGGCCCGGGCCCACGGCAUCACAGGAUAUGCCGAUCACAUGAGGAUCACCCAUGUCAACUCCGCAGAAGGGUGAUAUCGUG
Result value: 33.2
//
Sequence input: AACAUGGUACAGAAGGGCAAUUUAUUUAUUUAUUAUUUAGAACAGCAUUGCAGGAUAUGUUUAACAUGAGGAUCACCCAUGUAC
Result value: 15.8

Next up:
Query: Name the recorded apparent Kd of the sequence listed here: UUACUCAUGUAAGGAUAUGCAGCCGAAACGGCUGCAGAAGGUACUAUAAUACAUGAGGAUCACCCAUGUAAAAUAAAUAAAGUC
Reply: 16.9

* * *

# Test system: MS2 coat protein
# Assay details: apparent Kd, MS2 coat protein; higher = weaker binding; RNA-MaP array; tryptophan 2.4 mM where present
# Run parameters: ligand present: tryptophan; designed as: ON switch for tryptophan
Measured metric: apparent Kd (nM)
Give bare numbers, in nM.

Sequence input: AUUCAUGGAAACAUGACAUACAUUACCGGUCGAGGACCGGUACGGCCGCCACUCGGUUGGUGGCACAUGAGGAUCACCCAUGUUA
System tested: MS2 coat protein
Unit info: nM
apparent Kd: 26.7
//
Sequence input: GGUUACUCUACGGCCGCCACUGAACAUGAGGAUCACCCAUGUAAUGUUCAGACGUCUUUAGACGACAGGACCGGGUAGUGUAACC
System tested: MS2 coat protein
Unit info: nM
apparent Kd: 151
//
Sequence input: GAUACUAUGAAAGUAGUAUCUACGUGUUGACGAGGACCGGUACGGCCGCCACUCGACAUGAGGAUCACCCAUGUAUAGAAUAUGU
System tested: MS2 coat protein
Unit info: nM
apparent Kd: 14.8

Record apparent Kd per entry; entries follow.
1. CUAUAAAUAGCGGCCGCCACUUACUCAUGAGGUAACAACAUGAGGAUCACCCAUGUUUGAGGAUCAAGGACCGGGCUAUUUAUAG
2. AAUAAACAUGAGGAUCACCCAUGUUGUUGACGAGGACCGGUACGGCCGCCACUCGACAUGAGGAUCACCCAUGUUGUCACAUGAG
3. GGAUGGAACUCGGCCGCCACUGGUGAUCCUAAUGUACAUGAGGAUCACCCAUGUACAUGAGAAGAUAGGACCGGGAGAUAACAUG

Reply:
17.6
151
19.8

Query: Entry ACCGCGGUAUCGGCCGCCACUUGUGGGUUAAAUCUGGUACAUGAGGAUCACCCAUGUGUCUCCUCGAGGACCGGGAUAGCGUGAC needs its apparent Kd filled in; supply it.
Reply: 23.9

* * *

# Tested on: MS2 coat protein
# Assay details: apparent Kd, MS2 coat protein; higher = weaker binding; RNA-MaP array
# Run parameters: designed as: OFF switch for flavin mononucleotide; no ligand
Measured metric: apparent Kd

Sequence input: UUGUCCCGAGGAUAUGAGAGGGAGUACAUGAGGAUCACCCAUGUCAUGAAUCUUCAUAUCUCAGAAGGCGGUUGAU
Measured metric: apparent Kd
Result value: 4.85 nM

Sequence input: CUUAACAAAGGAUAUACACAAAUGAUUAAGGUGCCGGGAAAACAUGAGGAUCACCCAUGUAGAAGGUUGUAACA
Measured metric: apparent Kd
Result value: 8.1 nM

Sequence input: GCGCGCGUAGUCAGGAUAUGGUAUAAGUAACUUGGCCAGAAGGGACAUGAGGAUCACCCAUGUGCAUUGCUAGC
Measured metric: apparent Kd
Result value: 9.16 nM

Sequence input: UCAUCUGGGUCUUUGGUGCACAUGAGGAUCACCCAUGUAACUUAGGAUAUUAGUUAUGAUAUGAUUAAGAAGGAAGUCGCUAUU
Measured metric: apparent Kd
Result value: 15.2 nM

Sequence input: GAAUGAAGCGAGAAGGGACCAAAUGGGCAGAAACUACAUGAGGAUCACCCAUGUAAAAUAGAUAGUCAGGAUAUCGGAAGAAAG
Measured metric: apparent Kd
Result value: 36.4 nM

Sequence input: GUUCGUAGGUAGGAUAUAAGAGCUGUACUCUUCUUAGAAGGACCCACAUGAGGAUCACCCAUGUUUUGGGCGUG
Measured metric: apparent Kd
Result value: 10.3 nM

Sequence input: CGGAAGUGCAGCGCUUAAAGUACAUGAGGAUCACCCAUGUGAAAGGAUAUAUCGAAGUCAAAAUAAUAGAAGGUUCAGUGGGAU
Measured metric: apparent Kd
Result value: 22.6 nM

Sequence input: CGCUGUUGGCAGGAUAUAUUCGCAGCCCAGGCAAUAGAAGGGCCGACAUGAGGAUCACCCAUGUGUCUACAGGG
Measured metric: apparent Kd
Result value: 117 nM

Your task in this section: give apparent Kd for each listed record.
1. ACUACGCUAGGAUAUACGAGGAGUGCAUGGAAGCGUUUGACACAUGAGGAUCACCCAUGUAGAAGGAGCUGCAA
2. GUUAUCUCAUGUUCGACGGACAUGAGGAUCACCCAUGUACCUUAGGAUAUUGAUGAAAUAUGGCGCAAGAAGGAAGGUAACGCU
3. CCGCGCACUGGAGGAUAUAAUCGAACAUGAGGAUCACCCAUGUUAGACGUGGUACGAGCGUUCCAUUAGAAGGCCACUCUGCGU

Reply:
["7.75 nM", "6.47 nM", "27.1 nM"]

Dear reader, for each entry below, please note its apparent Kd.
1. GGUAGUACCGUAGGAUAUUCCGCUUACAUGAGGAUCACCCAUGUGGCUGGUAUUUCGUCAAAGAAGAAGAAGGACGUCUGCGCG
2. GCGAAGCAAGGAUAUGCCCGGCGAUACAUGAGGAUCACCCAUGUGAUGUAGUUAGUUGUAGCAGAAGGUGCGCGAU
3. UUACAGUCAGGAUAUUGAGUCACCCACAUGAGGAUCACCCAUGUACCUCGAAAACUGGAGCAAGAAGGGACUGCUG
4. CCACGCUCAGUUAGGAUAUGAUCCAUUACCAGUGAUCAGAAGGAACAUGAGGAUCACCCAUGUACAGUACGAGA
5. AACCGACAUGAGGAUCACCCAUGUGAGGAUAUGUUCGAGCUGGCAGGACCACCCUGGGACAGAAGGCACGUGAA

Reply:
1. 6.85 nM
2. 17.6 nM
3. 18.9 nM
4. 9.62 nM
5. 11.2 nM

For every item in the list below, what is its measured apparent Kd?
1. AGCGAAUAAGGAUAUACGUGAAAAGCACUUAGAGUUGGAUCACAUGAGGAUCACCCAUGUAGAAGGUAUGACGA
2. UAACCAAAUGGAUGACCACAUGAGGAUCACCCAUGUCGGCAACAGGAUAUUAUCAGAUGGGCUAAUAAGAAGGGUUACUCAGCC
3. GGAUGUAGACAGGAUAUUGCCAUUCCAAUGCGCCAAGAAGGGUCUACAUGAGGAUCACCCAUGUAAAGAAUAGG
4. AACAUGAGGAUCACCCAUGUCGGGUAUAGGAAUGUGUGUCUGCAGGAUAUGCCUUGCAUUGCAUAGCAGAAGGGCACGGCUCAG
5. GCUGACCAGGAGAAGGGAUACGGUCUCCUUGUGGAAAUGAACAUGAGGAUCACCCAUGUAUUAGAUCAGGAUAUCCAAUGGAGG

Reply:
1: 18.6 nM; 2: 14.9 nM; 3: 207 nM; 4: 125 nM; 5: 13.4 nM
